- System: mouse lymph node (LN) cells
- Assay Info: cells
- Condition Description: Mus musculus, 48 h, read-out: IC50 (normal; lymph node cells)
Metric: pIC50
The value called pIC50 is obtained by taking minus log10 of the concentration in mol/L.

pIC50 on mouse lymph node (LN) cells for CC(C)C[C@H](NC(=O)[C@H](Cc1ccccc1)NC(=O)c1cnccn1)B(O)O [Bortezomib, reference compound] is 7.04

---

- Tested Target: GADD45β/MKK7 complex (Homo sapiens, UniProt O14733)
- Construct: Full-length human (h)MKK7 was expressed as a protein fused to an N-terminal GST tag (GST-MKK7); made in house
- Sequence (O14733 whole entry, the tested form may be a part, one chain of several): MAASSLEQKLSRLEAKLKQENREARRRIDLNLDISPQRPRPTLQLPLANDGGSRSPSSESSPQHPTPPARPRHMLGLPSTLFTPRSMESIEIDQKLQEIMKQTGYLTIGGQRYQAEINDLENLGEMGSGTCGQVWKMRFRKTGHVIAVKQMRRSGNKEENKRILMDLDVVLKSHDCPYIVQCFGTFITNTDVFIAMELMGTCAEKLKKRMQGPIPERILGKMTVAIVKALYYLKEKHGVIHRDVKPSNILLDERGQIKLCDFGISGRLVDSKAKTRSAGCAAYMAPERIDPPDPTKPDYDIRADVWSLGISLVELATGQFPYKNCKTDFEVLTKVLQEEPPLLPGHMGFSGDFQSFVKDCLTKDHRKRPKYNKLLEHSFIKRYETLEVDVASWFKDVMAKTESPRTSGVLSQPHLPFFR
- Assay Info: ELISA GADD45β/MKK7 competition assay
- Format: binding
- Condition Description: read-out: % inhibition (ELISA)
Where a SMILES comes first, the peptide text is derived from it. [ ]: non-standard residue; d: D form. The star is where a group is joined. Benzoyl(3-OH,4-OMe) = COc1ccc(C(=O)*)cc1O
Metric: inhibition at 0.01 µM (%)
Value expressed in %; do not type the unit.

Given item COc1ccc(C(=O)N[C@H](Cc2ccc(O)cc2)C(=O)N[C@H](CC(=O)O)C(=O)N[C@H](Cc2c[nH]cn2)C(=O)N[C@H](Cc2ccccc2)C(N)=O)cc1O ({Benzoyl(3-OH,4-OMe)}-[dY][dD][dH][dF]-NH2) , the value recorded as its inhibition at 0.01 µM is 81

Given item COc1ccc(C(=O)N[C@H](Cc2ccc(O)cc2)C(=O)N[C@H](CCC(=O)O)C(=O)N[C@H](CCCNC(=N)N)C(=O)N[C@H](Cc2ccccc2)C(N)=O)cc1O ({Benzoyl(3-OH,4-OMe)}-[dY][dE][dR][dF]-NH2) , the value recorded as its inhibition at 0.01 µM is 86

Given item NC(=O)[C@@H](Cc1ccccc1)NC(=O)[C@@H](Cc1c[nH]cn1)NC(=O)[C@@H](CC(=O)O)NC(=O)[C@@H](Cc1ccc(O)cc1)NC(=O)c1ccccc1 [Benzoyl-YDHF-NH2] , the value recorded as its inhibition at 0.01 µM is 0

---

- Tested Target: GADD45β/MKK7 complex (Homo sapiens, UniProt O14733)
- Construct: Full-length human (h)MKK7 was expressed as a protein fused to an N-terminal GST tag (GST-MKK7); made in house
- Assay Info: ELISA GADD45β/MKK7 competition assay
- Assay type: binding
- Condition Description: Figure 3B; after a 48 hr preincubation with human serum; read-out: IC50
Metric: pIC50
The value called pIC50 is obtained by taking minus log10 of the concentration in mol/L.

Structure Smiles | pIC50
CC(=O)N[C@H](Cc1ccc(O)cc1)C(=O)N[C@H](CC(=O)O)C(=O)N[C@H](Cc1c[nH]cn1)C(=O)N[C@H](Cc1ccccc1)C(N)=O | 9.70

Now, please, on to the next compound.
pIC50 on GADD45β/MKK7 complex (Homo sapiens, UniProt O14733) for CC(=O)N[C@H](Cc1ccc(O)cc1)C(=O)N[C@H](CCC(=O)O)C(=O)N[C@H](CCCNC(=N)N)C(=O)N[C@H](Cc1ccccc1)C(N)=O is 9.66

---

# Lookup of reported inhibition at 0.042 µM keyed by entry
- Tested Target: GADD45β/MKK7 complex (Homo sapiens, UniProt O14733)
- Construct: Full-length human (h)MKK7 was expressed as a protein fused to an N-terminal GST tag (GST-MKK7); made in house
- Assay Info: ELISA GADD45β/MKK7 competition assay
- Assay type: binding
- Condition Description: Table S4; values marked (#), peptide at 42 nM; read-out: % inhibition of (ELISA)
Where a SMILES comes first, the peptide text is derived from it. [ ]: non-standard residue; d: D form.
Value expressed in %; do not type the unit.

These recorded examples may help you get a feel for the data.
Compound | Endpoint Result
CC(=O)N[C@H](Cc1ccc(O)cc1)C(=O)N[C@H](CCC(=O)O)C(=O)N1CCC[C@@H]1C(=O)N[C@H](Cc1ccccc1)C(N)=O [Ac-YEPF-NH2] (Ac-[dY][dE][dP][dF]-NH2) | 13
CC(=O)N[C@@H](Cc1c[nH]c2ccccc12)C(=O)N[C@@H](CCC(=O)O)C(=O)N[C@@H](CCCNC(=N)N)C(=O)N[C@@H](Cc1c[nH]c2ccccc12)C(N)=O [Ac-WERW-NH2] (Ac-WERW-NH2) | 69
CC(=O)N[C@H](Cc1ccc(O)cc1)C(=O)N[C@H](CCC(=O)O)C(=O)N[C@H](CCCNC(=N)N)C(=O)N1CCC[C@@H]1C(N)=O [Ac-YERP-NH2] (Ac-[dY][dE][dR][dP]-NH2) | 0
CC(=O)NC(C)C(=O)NC(CCC(=O)O)C(=O)NC(CCCNC(=N)N)C(=O)NC(Cc1ccccc1)C(N)=O (stereo not drawn) [Ac-AERF-NH2] (Ac-AERF-NH2; configuration not given here) | 7

Given item CC(=O)N[C@H](Cc1ccc(O)cc1)C(=O)N[C@H](CCC(=O)O)C(=O)N[C@H](C)C(=O)N[C@H](Cc1ccccc1)C(N)=O [Ac-YEAF-NH2] (Ac-[dY][dE][dA][dF]-NH2) , the value recorded as its inhibition at 0.042 µM is 13

Given item CC(=O)N[C@H](Cc1ccc(O)cc1)C(=O)N1CCC[C@@H]1C(=O)N[C@H](CCCNC(=N)N)C(=O)N[C@H](Cc1ccccc1)C(N)=O [Ac-YPRF-NH2] (Ac-[dY][dP][dR][dF]-NH2) , the value recorded as its inhibition at 0.042 µM is 13

Numbers sourced from paper PMC4197335.
